- ASSAY_TARGET: rat lens aldose reductase (Rattus norvegicus, UniProt P07943)
- Construct: evaluated against rat lens aldose reductase; from tissue; host or cells: rat lens
- TEST_NAME: inhibition of rat lens aldose reductase
- Format: biochemical
- COND: based on the inhibition of rat lens aldose reductase; read-out: IC50 value
ATTRIBUTE_MEASURED: IC50
Hey, just the number and the unit after it is fine.

Exercise: Return IC50 (reported value) for this compound: COc1cc(F)cc2c1-c1c(OC)cc(F)cc1C21NC(=O)NC1=O
Key: 7.8 nM

---

- System: rat lenses in 30 mM xylose culture
- TEST_NAME: rat lens culture assay, 30 mM xylose cataract model
- Format: cell-based, Sprague-Dawley rats
- COND: Rattus norvegicus; after 18 h 30 mM xylose culture; compound 7.5 × 10^-7 M; % of control contralateral lens; read-out: L/M% = Lens uptake of choline-3H
Measured activity at 0.75 µM, listed per entry for reference.
Give just the number in %; leave the unit off.

Some entries whose results are on file:
{"COMPOUND": "O=C1NC(=O)C2(S1)c1ccccc1-c1ccc(F)cc12 (stereo not shown) [C]", "UNIT_OF_MEASUREMENT": "%", "activity at 0.75 µM": 77}
{"COMPOUND": "O=C1NC(=O)C2(S1)c1cc(F)ccc1-c1ccc(F)cc12 [D]", "UNIT_OF_MEASUREMENT": "%", "activity at 0.75 µM": 109}
{"COMPOUND": "O=C1NC(=O)C2(N1)c1cc(F)ccc1-c1ccc(F)cc12 [B, reference compound]", "UNIT_OF_MEASUREMENT": "%", "activity at 0.75 µM": 105}

Continue with the compound presented below.
Exercise: Return activity at 0.75 µM (reported value) for this compound: O=C1NC(=O)C2(N1)c1ccccc1-c1ccc(F)cc12 (stereo not shown) [Compound A, reference compound]
Key: 73

---

Measured IC50, listed per entry for reference.
- ASSAY_TARGET: rat lens aldose reductase (Rattus norvegicus, UniProt P07943)
- Construct: evaluated against rat lens aldose reductase; from tissue; host or cells: rat lens
- TEST_NAME: inhibition of rat lens aldose reductase
- Type: biochemical
- COND: based on inhibition of rat lens aldose reductase; read-out: IC50
Hey, just the number and the unit after it is fine.

Some entries whose results are on file:
{"MOLECULE": "COc1cc(F)cc2c1-c1ccc(F)cc1C21CC(=O)NC1=O (stereo not shown)", "ASSAY_TARGET": "rat lens aldose reductase (Rattus norvegicus, UniProt P07943)", "IC50": "0.0048 µM"}
{"MOLECULE": "O=C1NC(=O)C2(N1)c1cc(F)cc(F)c1-c1c(F)cc(F)cc12", "ASSAY_TARGET": "rat lens aldose reductase (Rattus norvegicus, UniProt P07943)", "IC50": "0.012 µM"}
{"MOLECULE": "Cc1cc(F)cc2c1-c1ccc(F)cc1C21NC(=O)NC1=O (stereo not shown)", "ASSAY_TARGET": "rat lens aldose reductase (Rattus norvegicus, UniProt P07943)", "IC50": "0.0128 µM"}
{"MOLECULE": "COc1cc(F)cc2c1-c1c(F)cc(F)cc1C21NC(=O)NC1=O (stereo not shown)", "ASSAY_TARGET": "rat lens aldose reductase (Rattus norvegicus, UniProt P07943)", "IC50": "11.3 µM"}
{"MOLECULE": "Cc1cc(F)cc2c1-c1ccc(F)cc1C21CC(=O)NC1=O (stereo not shown)", "ASSAY_TARGET": "rat lens aldose reductase (Rattus norvegicus, UniProt P07943)", "IC50": "0.0028 µM"}
{"MOLECULE": "Cc1ccc2c(n1)-c1c(F)cc(F)cc1C21NC(=O)NC1=O (stereo not shown)", "ASSAY_TARGET": "rat lens aldose reductase (Rattus norvegicus, UniProt P07943)", "IC50": "0.048 µM"}

Exercise: Return IC50 (reported value) for this molecule: COc1cc(F)cc2c1-c1ccc(F)cc1C21NC(=O)NC1=O (stereo not shown)
Key: 0.0094 µM

Exercise: Return IC50 (reported value) for this molecule: Cc1cc(F)cc2c1-c1ncc(F)cc1C21NC(=O)NC1=O (stereo not shown)
Key: 0.0161 µM

Exercise: Return IC50 (reported value) for this molecule: CSc1cc(F)cc2c1-c1ccc(F)cc1C21NC(=O)NC1=O (stereo not shown)
Key: 0.0175 µM

Exercise: Return IC50 (reported value) for this molecule: O=C1NC(=O)C2(S1)c1cc(F)cc(F)c1-c1c(F)cc(F)cc12
Key: 0.017 µM

---

Measured activity at 0.75 µM, listed per entry for reference.
- Tested on: rat lenses in 30 mM xylose culture
- TEST_NAME: rat lens culture assay, 30 mM xylose cataract model
- Type: cell-based, Sprague-Dawley rats
- COND: Rattus norvegicus; after 18 h 30 mM xylose culture; compound 7.5 × 10^-7 M; % of control contralateral lens; read-out: L/M% = Lens uptake of 86Rb
Give just the number in %; leave the unit off.

{"MOLECULE": "O=C1NC(=O)C2(N1)c1cc(F)ccc1-c1ccc(F)cc12 [B, reference compound]", "ASSAY_TARGET": "rat lenses in 30 mM xylose culture", "UNIT_OF_MEASUREMENT": "%", "activity at 0.75 µM": 82}
{"MOLECULE": "O=C1NC(=O)C2(S1)c1cc(F)ccc1-c1ccc(F)cc12", "ASSAY_TARGET": "rat lenses in 30 mM xylose culture", "UNIT_OF_MEASUREMENT": "%", "activity at 0.75 µM": 83}
{"MOLECULE": "O=C1NC(=O)C2(N1)c1ccccc1-c1ccc(F)cc12 (stereo not shown) [Compound A, reference compound]", "ASSAY_TARGET": "rat lenses in 30 mM xylose culture", "UNIT_OF_MEASUREMENT": "%", "activity at 0.75 µM": 55}

Continue with the molecule presented below.
Exercise: Return activity at 0.75 µM (reported value) for this molecule: O=C1NC(=O)C2(S1)c1ccccc1-c1ccc(F)cc12 (stereo not shown)
Key: 70

Reference for the values: patent US5153211A
